Please go through the items and note down their Inhibition rate on RET-G810S (%).
- test-system: RET-G810S enzyme (Homo sapiens (Human), UniProt P07949, G810S)
- Sequence (P07949 29-1114 G810S): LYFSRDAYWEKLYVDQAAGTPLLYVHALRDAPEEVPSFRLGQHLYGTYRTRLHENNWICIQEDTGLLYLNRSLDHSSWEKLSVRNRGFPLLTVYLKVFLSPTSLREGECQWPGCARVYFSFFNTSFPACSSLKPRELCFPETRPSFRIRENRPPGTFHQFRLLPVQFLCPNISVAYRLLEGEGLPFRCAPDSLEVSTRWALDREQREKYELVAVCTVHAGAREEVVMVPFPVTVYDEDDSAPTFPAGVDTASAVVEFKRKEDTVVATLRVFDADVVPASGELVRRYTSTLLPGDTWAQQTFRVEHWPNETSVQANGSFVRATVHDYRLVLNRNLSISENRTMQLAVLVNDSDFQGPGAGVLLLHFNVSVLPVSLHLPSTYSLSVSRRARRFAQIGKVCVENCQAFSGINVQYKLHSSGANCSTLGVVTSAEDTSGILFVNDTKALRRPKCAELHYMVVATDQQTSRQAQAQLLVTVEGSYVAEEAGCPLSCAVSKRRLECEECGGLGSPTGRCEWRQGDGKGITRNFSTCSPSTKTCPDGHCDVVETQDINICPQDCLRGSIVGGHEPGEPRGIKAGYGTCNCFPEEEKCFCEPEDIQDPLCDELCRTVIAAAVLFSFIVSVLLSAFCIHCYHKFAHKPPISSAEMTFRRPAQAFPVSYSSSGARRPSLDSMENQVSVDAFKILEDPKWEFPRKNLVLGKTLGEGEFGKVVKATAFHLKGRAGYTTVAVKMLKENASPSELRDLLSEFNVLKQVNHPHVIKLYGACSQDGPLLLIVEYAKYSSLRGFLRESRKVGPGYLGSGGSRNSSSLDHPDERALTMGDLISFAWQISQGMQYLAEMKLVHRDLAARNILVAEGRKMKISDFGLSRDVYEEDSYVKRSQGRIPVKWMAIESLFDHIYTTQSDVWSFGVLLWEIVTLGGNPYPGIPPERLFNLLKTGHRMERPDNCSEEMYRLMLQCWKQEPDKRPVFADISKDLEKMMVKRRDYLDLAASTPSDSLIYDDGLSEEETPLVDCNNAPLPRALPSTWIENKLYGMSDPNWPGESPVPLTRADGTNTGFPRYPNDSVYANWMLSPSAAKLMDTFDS
- assay-details: RET inhibition experiment, HTRF KinEASE-TK kit, RET-G810S
- Type: biochemical
- measurement-conditions: compound concentration 300 nM
Number plus unit, in that order.

The molecule listed as Cc1cc(Nc2cc(C)[nH]n2)nc(-c2ccc(N3CC4CC(C3)N4Cc3ccc(-n4cc(F)c(C(C)(C)O)n4)nc3)nc2)n1.O=C(O)/C=C/C(=O)O [Compound 30-A] has a reported Inhibition rate on RET-G810S (%) of 99.01 ± 0.15%

The molecule listed as Cc1cc(Nc2cc(C)[nH]n2)nc(-c2ccc(N3CC4CC(C3)N4Cc3ccc(-n4nccc4OC4CC4)nc3)nc2)n1 [Compound 19] has a reported Inhibition rate on RET-G810S (%) of 80.98 ± 7.32%

The molecule listed as Cc1cc(Nc2cc(C)[nH]n2)nc(-c2ccc(N3CC4CC(C3)N4Cc3ccc(-n4nccc4C4CC4)nc3)nc2)n1 [Compound 11] has a reported Inhibition rate on RET-G810S (%) of 90.87 ± 1.13%

The molecule listed as Cc1cc(Nc2cc(C)[nH]n2)nc(-c2ccc(N3CC4CC(C3)N4Cc3ccc(-n4cccn4)cc3)nc2)n1 [Compound 6] has a reported Inhibition rate on RET-G810S (%) of 83.01 ± 1.42%

The molecule listed as Cc1cc(Nc2cc(C)[nH]n2)nc(-c2ccc(N3CC4CC(C3)N4Cc3ccc(-n4ccc(F)n4)nc3)nc2)n1 [Compound 8] has a reported Inhibition rate on RET-G810S (%) of 83.73 ± 3.16%

The molecule listed as Cc1cc(Nc2cc(C)[nH]n2)nc(-c2ccc(N3CC4CC(C3)N4Cc3ccc(-n4cccn4)nc3)nc2)n1 [Compound 5] has a reported Inhibition rate on RET-G810S (%) of 97.89 ± 0.57%

The molecule listed as Cc1cc(Nc2cc(C)[nH]n2)nc(-c2ccc(N3CC4CC(C3)N4Cc3ccc(-c4ccc(C)o4)nc3)nc2)n1 [Compound 16] has a reported Inhibition rate on RET-G810S (%) of 85.27 ± 0.37%

The molecule listed as Cc1cc(Nc2cc(C)[nH]n2)nc(-c2ccc(N3CC4CC(C3)N4Cc3ccc(-n4cc(F)cn4)cc3)nc2)n1 [Compound 7] has a reported Inhibition rate on RET-G810S (%) of 91.80 ± 0.98%

The molecule listed as Cc1cc(Nc2cc(C)[nH]n2)nc(-c2ccc(N3CC4CC(C3)N4Cc3ccc(-c4ccn[nH]4)nc3)nc2)n1 [Compound 25] has a reported Inhibition rate on RET-G810S (%) of 97.26 ± 0.72%

The molecule listed as Cc1cc(Nc2cc(C)[nH]n2)nc(-c2ccc(N3CC4CC(C3)N4Cc3ccc(-n4ccc(F)n4)cc3)nc2)n1 [Compound 17] has a reported Inhibition rate on RET-G810S (%) of 90.64 ± 0.68%

The molecule listed as Cc1cc(Nc2cc(C)[nH]n2)nc(-c2ccc(N3CC4CC(C3)N4Cc3ccc(-n4cc(F)cn4)nc3)nc2)c1 [Compound 13] has a reported Inhibition rate on RET-G810S (%) of 97.21 ± 1.01%

The molecule listed as Cc1cc(Nc2cc(C)[nH]n2)nc(-c2ccc(N3CC4CC(C3)N4Cc3ccc(-n4cc(C)c(C)n4)nc3)nc2)n1 [Compound 12] has a reported Inhibition rate on RET-G810S (%) of 99.19 ± 0.55%

The molecule listed as Cc1cc(Nc2cc(C)[nH]n2)nc(-c2ccc(N3CC4CC(C3)N4Cc3ccc(-n4cnc(F)c4)nc3)nc2)n1 [Compound 10] has a reported Inhibition rate on RET-G810S (%) of 88.46 ± 2.23%

The molecule listed as Cc1cnn(-c2ccc(CN3C4CC3CN(c3ccc(-c5nc(C)cc(Nc6cc(C)[nH]n6)n5)cn3)C4)cn2)c1 [Compound 4] has a reported Inhibition rate on RET-G810S (%) of 98.89 ± 0.18%

The molecule listed as Cc1cc(Nc2cc(C)[nH]n2)nc(-c2ccc(N3CC4CC(C3)N4Cc3ccc(-c4cscn4)nc3)nc2)n1 [Compound 26] has a reported Inhibition rate on RET-G810S (%) of 97.83 ± 0.32%

The molecule listed as Cc1cc(Nc2cc(C)[nH]n2)nc(-c2ccc(N3CC4CC(C3)N4Cc3ccc(-n4ncc(F)c4C)nc3)nc2)n1 [Compound 20] has a reported Inhibition rate on RET-G810S (%) of 96.67 ± 0.03%

Source listed as patent US20250268897A1.
